- MEASUREMENT TARGET: SARS-CoV-2 spike protein receptor binding domain (RBD2) (SARS-CoV-2, UniProt P0DTC2 319-537)
- PROCEDURE SUMMARY: SPR sandwich binning, ligand H05
Quick reference for normalized analyte binding to RBD2 held by the immobilized ligand among some binders
MEASURE NAME: normalized analyte binding to RBD2 held by the immobilized ligand

[
  {
    "BINDER": "E08 IgG1 (antibody, V domains shown) VH: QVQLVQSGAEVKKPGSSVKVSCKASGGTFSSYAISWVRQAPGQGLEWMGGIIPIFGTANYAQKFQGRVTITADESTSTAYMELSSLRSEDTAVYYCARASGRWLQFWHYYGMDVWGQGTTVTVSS VL: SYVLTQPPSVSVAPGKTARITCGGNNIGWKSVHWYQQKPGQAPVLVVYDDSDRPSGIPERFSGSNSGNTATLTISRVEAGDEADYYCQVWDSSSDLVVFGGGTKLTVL",
    "RESULT": -0.11
  },
  {
    "BINDER": "H05 IgG1 (antibody, V domains shown, also called H5; HO5) VH: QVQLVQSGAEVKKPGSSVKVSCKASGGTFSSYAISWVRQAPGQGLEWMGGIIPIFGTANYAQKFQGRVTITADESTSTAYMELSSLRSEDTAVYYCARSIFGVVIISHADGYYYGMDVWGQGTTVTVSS VL: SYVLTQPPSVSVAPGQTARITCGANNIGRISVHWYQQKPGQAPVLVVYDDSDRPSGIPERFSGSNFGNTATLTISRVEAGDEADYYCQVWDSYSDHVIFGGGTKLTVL",
    "RESULT": -0.17
  }
]
